Tested on: MX-1 breast xenograft, intrarenal, nude mice, tumor weight
assay-comment: NCI In Vivo Anticancer Drug Screen. Data for tumor model Human Mammary Carcinoma MX-1 Xenograft (intrarenal inoculation) in NU/NU BALB/C (nude) mice
stated-conditions: endpoint: mean tumor weight change; dose: 60.0 mg/kg/injection; schedule: Q04DX003 (ip); vehicle: saline; higher = larger tumour
Results filed as inconclusive are left out.
The entries below are paired with their reported T/C.

COc1cccc2c1C(CO)N1C(C#N)C3CC(C(=O)O)C(C1C2)N3C (centres undefined) : 13 % of control
CCN(CC)CC(C)(C)C(=O)/C=C/c1ccc(/C=C/C(=O)C(C)(C)CN(CC)CC)cc1 : 67 % of control
CCCSc1nc(COC(=O)NC)c(COC(=O)NC)n1C : 76 % of control

Record summary for "CCCn1c(SC)nc(COC(=O)NC)c1COC(=O)NC" : reported T/C = 38 % of control

====

Test system: MX-1 breast xenograft, intrarenal, nude mice, tumor weight
assay-comment: NCI In Vivo Anticancer Drug Screen. Data for tumor model Human Mammary Carcinoma MX-1 Xenograft (intrarenal inoculation) in NU/NU BALB/C (nude) mice
stated-conditions: endpoint: mean tumor weight change; dose: 100.0 mg/kg/injection; schedule: Q04DX003 (sc); vehicle: saline; higher = larger tumour
Results filed as inconclusive are left out.
recorded-metric: T/C

Look over these answered cases.
Brc1c(NC2=NCCN2)ccc2nccnc12 : 57 % of control
Cc1nnc2ncccn12 : 86 % of control
CC(=O)C1=C(O)C2(O)C(=O)c3c(c(C)c4ccc(C)c(O)c4c3O)CC2C(N)C1=O (configuration not stated) : 89 % of control
Nc1ccn([C@@H](C=O)O[C@@H](C=O)CO)c(=O)n1 : 14 % of control
NC1=NC(=O)N2CC12 (configuration not stated) : 116 % of control

Record summary for Nc1ncn(C2OC(CO)C(O)C2O)c(=O)n1 (configuration not stated) : reported T/C = 15 % of control

Record summary for O=P1(N(CCCl)CCCl)NCCCO1 (configuration not stated) : reported T/C = -95 % of control

====

System: MX-1 breast xenograft, intrarenal, nude mice, tumor weight
assay-comment: NCI In Vivo Anticancer Drug Screen. Data for tumor model Human Mammary Carcinoma MX-1 Xenograft (intrarenal inoculation) in NU/NU BALB/C (nude) mice
stated-conditions: endpoint: mean tumor weight change; dose: 75.0 mg/kg/injection; schedule: Q04DX003 (sc); vehicle: saline with Tween-80; higher = larger tumour
Records with an inconclusive call do not appear.
recorded-metric: T/C

Look over these answered cases.
CN1CCN(c2ccc([N+](=O)[O-])c3no[n+]([O-])c23)CC1 : 83 % of control
c1ccc2c(c1)-c1ccccc1C1NC21 (stereo not drawn) : 30 % of control
CCOC1=Cc2c(oc3c(C(C)(C)C)cc(OCC)cc23)OC(C(C)(C)C)=C1 : 98 % of control
CC(=O)N(C)O : 80 % of control

Record summary for "CCN(CC)Cc1cc2[nH]c3c4ccc(Cl)cc4ncc3c2cc1OC" : reported T/C = 92 % of control

Record summary for "CCc1nc(N)nc(N)c1-c1ccc(Cl)c([N+](=O)[O-])c1" : reported T/C = 82 % of control

Record summary for CN=S(=O)(OCCCCCOS(=O)(=NC)c1ccc(C)cc1)c1ccc(C)cc1 (stereo not drawn) : reported T/C = 86 % of control

Record summary for "CN(C)c1nc(N(C)C)nc(N(C)C)n1" : reported T/C = 37 % of control

====

Test system: MX-1 breast xenograft, intrarenal, nude mice, tumor weight
assay-comment: NCI In Vivo Anticancer Drug Screen. Data for tumor model Human Mammary Carcinoma MX-1 Xenograft (intrarenal inoculation) in NU/NU BALB/C (nude) mice
stated-conditions: endpoint: mean tumor weight change; dose: 600.0 mg/kg/injection; schedule: Q04DX003 (sc); vehicle: saline with Tween-80; higher = larger tumour
Results filed as inconclusive are left out.
recorded-metric: T/C

Look over these answered cases.
O=C(CCCCCCC(=O)ON1C(=O)CCC1=O)ON1C(=O)CCC1=O : 96 % of control
COC1(OC)C2C=CC1CC2 : 121 % of control
C=COC(=O)C(Cc1ccccc1)NC(=O)OCc1ccccc1 (stereo unspecified) : 85 % of control
Nc1nc2c(ncn2C2OC(CO)C(O)C2O)c(=O)[nH]1 (stereo unspecified) : 81 % of control
COC(=O)Nc1nc2ccc(C3(c4ccc(F)cc4)OCCO3)cc2[nH]1 : 190 % of control

Record summary for "O=[N+]([O-])c1ccc(N2CCOCC2)c2c1no[n+]2[O-]" : reported T/C = 74 % of control

Record summary for CN(C)C1C(=O)C(C(=O)NP(=O)(NCCCO)N(CCCl)CCCl)=C(O)C2(O)C(=O)C3=C(O)c4c(O)cccc4C(C)(O)C3CC12 (stereo unspecified) : reported T/C = -100 % of control

Record summary for "CC(=O)ON(C(C)=O)c1ccc(C(N)=O)cc1" : reported T/C = 52 % of control

Record summary for COC(=O)CC(N)C(=O)O (stereo unspecified) : reported T/C = 121 % of control

Record summary for "COC(=Nc1ccccc1)SSC(C)C" : reported T/C = 99 % of control

Record summary for "CC1=C(/C=C/C(C)=C/C=C/C(C)=C/C=O)C(C)(C)CCC1" : reported T/C = 51 % of control

====

Tested on: MX-1 breast xenograft, intrarenal, nude mice, tumor weight
assay-comment: NCI In Vivo Anticancer Drug Screen. Data for tumor model Human Mammary Carcinoma MX-1 Xenograft (intrarenal inoculation) in NU/NU BALB/C (nude) mice
stated-conditions: endpoint: mean tumor weight change; dose: 600.0 mg/kg/injection; schedule: Q04DX003 (ip); vehicle: suspension in saline; higher = larger tumour
Protocol: The antitumor activity of compounds was measured in mice bearing transplantable tumors. Survival or tumor size were measured and the results are expressed as the measurement made in the treated group (T) divided by the measurement made in the vehicle treated control group (C). The tumor model used in this assay is Human Mammary Carcinoma MX-1 Xenograft (intrarenal inoculation) in NU/NU BALB/C (nude) mice
Results filed as inconclusive are left out.
recorded-metric: T/C

Record summary for "CN(C)C(=O)Nc1ccc(Cl)cc1" : reported T/C = 91 % of control

====

Test system: MX-1 breast xenograft, intrarenal, nude mice, tumor weight
assay-comment: NCI In Vivo Anticancer Drug Screen. Data for tumor model Human Mammary Carcinoma MX-1 Xenograft (intrarenal inoculation) in NU/NU BALB/C (nude) mice
stated-conditions: endpoint: mean tumor weight change; dose: 75.0 mg/kg/injection; schedule: Q04DX003 (ip); vehicle: other; higher = larger tumour
Records with an inconclusive call do not appear.
recorded-metric: T/C

Look over these answered cases.
O=NNc1ccc2cccnc2n1 : -45 % of control
CN1CCN(CN2C(=O)C3C4C=CC(C3C2=O)C2C3C(=O)N(CN5CCN(C)CC5)C(=O)C3C42)CC1 (stereo not given) : 122 % of control
CN(N=O)C(=O)N[C@@H](C=O)[C@@H](O)[C@H](O)[C@H](O)CO : 117 % of control
CO[C@@H]1C2=CC=CC=C[C@H]2n2c(=O)n(C)c(=O)n21 : 36 % of control

Record summary for "Cc1noc2nc(-c3ccccc3)cc(N3CCN(C)CC3)c12" : reported T/C = 83 % of control

====

The entries below are paired with their reported T/C.
Tested on: MX-1 breast xenograft, intrarenal, nude mice, tumor weight
assay-comment: NCI In Vivo Anticancer Drug Screen. Data for tumor model Human Mammary Carcinoma MX-1 Xenograft (intrarenal inoculation) in NU/NU BALB/C (nude) mice
stated-conditions: endpoint: mean tumor weight change; dose: 600.0 mg/kg/injection; schedule: Q04DX003 (ip); vehicle: water; higher = larger tumour
Results filed as inconclusive are left out.

Look over these answered cases.
CC(=O)NO : 79 % of control
[Na+] : 84 % of control
NC(=O)c1c[se]c(C2OC(CO)C(O)C2O)n1 (stereo not given) : 43 % of control
NCc1cc(O)c(O)c(O)c1 : 89 % of control

Bench note, MX-1 breast xenograft, intrarenal, nude mice, tumor weight: "CS(C)(O)NC(N)=O" , T/C reads 110 % of control

====

The entries below are paired with their reported T/C.
Test system: MX-1 breast xenograft, intrarenal, nude mice, tumor weight
assay-comment: NCI In Vivo Anticancer Drug Screen. Data for tumor model Human Mammary Carcinoma MX-1 Xenograft (intrarenal inoculation) in NU/NU BALB/C (nude) mice
stated-conditions: endpoint: mean tumor weight change; dose: 150.0 mg/kg/injection; schedule: Q04DX003 (ip); vehicle: saline with Tween-80; higher = larger tumour
Inconclusive results are not listed.

Record summary for O=C1c2ccccc2C(Cl)(c2ccc(Cl)cc2)c2ccc(Cl)cc21 (configuration not stated) : reported T/C = 53 % of control

Record summary for "O=C(NNC(=O)c1cccc(C(=O)NNC(=O)c2ccc(Cl)c(Cl)c2)n1)c1ccc(Cl)c(Cl)c1" : reported T/C = 73 % of control

Record summary for "Cc1cc2c(C(C)C)c(O)c(O)c(C=NCCO)c2c(O)c1-c1c(C)cc2c(C(C)C)c(O)c(O)c(C=NCCO)c2c1O" : reported T/C = 86 % of control
